- Tested on: MDA-MB-468 breast
- ASSAY_PROCEDURE: NCI-60 one-dose screen, 48 h
- CONDITION_NOTES: 10 µM unless noted
The panel holds about 83,000 compounds, 20% with a hit somewhere; the sample as a whole holds those more often. Active and inactive are the calls of the source. Rule for the calls: active = growth percent below 10; inactive = the rest.
Your response should consist of one outcome taken from active, inactive

Use the examples below as a reference point.
Recorded test outcome, item `CC(=O)OC[C@]12CC[C@@H]([C@@H](C)c3nnc(-c4ccncc4)o3)[C@@H]1[C@H]1CC[C@@H]3[C@@]4(C)CC[C@H](OC(C)=O)C(C)(C)[C@@H]4CC[C@@]3(C)[C@]1(C)CC2` inactive

What call does the record list for CCCCCCCCCCCC(=O)NC(C)(C)C(=O)N1CCCC1C(=O)NC(C)(C)C(=O)NC(C)(C)C(=O)N1CCCC1C(=O)NC(C)(C)C(=O)NC(C)(C)C(=O)N1CCCC1C(=O)NC(C)C(=O)NCCC(=O)NC(C)C(=O)NC(C)(C)C(=O)NC(C)(C)C(=O)NC(C)(C)C(=O)NCCC(=O)NC(C)(C)C(=O)NC(C)(C)C(=O)NC(C)(C)C(=O)NC(C)C(=O)NCCC(=O)O (stereo unspecified) ? active

Status in this test for `CC1=C(/C=C/C(C)=C/C=C/C(C)=C/CO)C(C)(C)CCC1` ? inactive

Further cases:
Recorded call for `O=C(/C=C/c1cccc(F)c1)c1cccc(OCCCOc2cccc(C(=O)/C=C/c3cccc(F)c3)c2)c1` ? inactive
